Values compiled from PubChem BioAssay AID2060501.

- System: 282377-053-R-J1-PDC complex spheroids, viability;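 further: spheroids exposed to compounds for 7 days before readout; percent of vehicle DMSO control viability with 100% = untreated-like growth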
- assayComment: Anticancer human tumor 282377-053-R-J1-PDC patient-derived colon adenocarcinoma cell line growth inhibition [GQUAD]
- runParameters: second compound 10 µM; first compound 0.0316 µM; hits give low values
measuredQuantity: viability, T/C (%)
Answers are plain numbers, in %.

# example entries with known answers
compound	measuredQuantity	valueMeasured
COc1ncnc(C2CC2)c1-c1ncc2cnn(Cc3ccc(-c4nc(C(F)(F)F)cn4C(C)C)cc3)c2n1 + CN(C)c1ccc(Nc2c3ccc(NC(=O)CCN4CCCC4)cc3nc3cc(NC(=O)CCN4CCCC4)ccc23)cc1	viability, T/C	85.4
Nc1ccn(C2OC(CO)C(O)C2(F)F)c(=O)n1 (stereo unspecified) + Cc1[nH]c2ccc(F)cc2c1-c1nc2c3cccnc3c3ncccc3c2[nH]1	viability, T/C	39.2
CC(=O)O[C@H]1C(=O)[C@@]2(C)[C@H]([C@H](OC(=O)c3ccccc3)[C@]3(O)C[C@H](OC(=O)[C@H](O)[C@@H](NC(=O)c4ccccc4)c4ccccc4)C(C)=C1C3(C)C)[C@]1(OC(C)=O)CO[C@@H]1C[C@@H]2O + CN(C)c1ccc(Nc2c3ccc(NC(=O)CCN4CCCC4)cc3nc3cc(NC(=O)CCN4CCCC4)ccc23)cc1	viability, T/C	47.2

Required: viability, T/C, one value per compound below.
1. CCc1c2c(nc3ccc(O)cc13)-c1cc3c(c(=O)n1C2)COC(=O)[C@]3(O)CC + Cc1cnc(CNC(=O)c2c(=O)c3ccc(N4CCCN(C)CC4)nc3n3c2sc2ccccc23)cn1
2. CC1COCCN1c1cc(C2(O)CC3CCC(C2)O3)c2cnn(-c3ccn[nH]3)c2n1 (stereo unspecified) + Cc1[nH]c2ccc(F)cc2c1-c1nc2c3cccnc3c3ncccc3c2[nH]1
3. Cc1[nH]c2ccccc2c1CCNCc1ccc(/C=C/C(=O)NO)cc1 + CN(C)c1ccc(Nc2c3ccc(NC(=O)CCN4CCCC4)cc3nc3cc(NC(=O)CCN4CCCC4)ccc23)cc1
4. COc1cc(C2c3cc4c(cc3C(OC3OC5COC(C)OC5C(O)C3O)C3COC(=O)C23)OCO4)cc(OC)c1O (stereo unspecified) + CN(C)c1ccc(Nc2c3ccc(NC(=O)CCN4CCCC4)cc3nc3cc(NC(=O)CCN4CCCC4)ccc23)cc1
5. CC(C)(O)C1CCC(Nc2ccc3ncc(-c4cccc(C(F)(F)F)c4)n3n2)CC1 (stereo unspecified) + Cc1[nH]c2ccc(F)cc2c1-c1nc2c3cccnc3c3ncccc3c2[nH]1

1: 40.9; 2: 31.2; 3: 92.8; 4: 90.3; 5: 61.9
